For each record, write down the corresponding inhibition at 1 mg/kg.
- System: plasma renin activity
- Experiment: Ex vivo plasma renin activity (PRA) test after oral administration
- Type: in vivo, Macaca fascicularis
- Condition description: Macaca fascicularis, po, 4 h, read-out: Macaca fascicularis plasma renin activity, PPA inhibitory activity (%, n = 3-7)
Where a name gives a salt, the structure may show the parent alone.
The answer is to be given in %; state only the numeric part.

Noted for COCCCCn1c(C(=O)N(CC(C)C)[C@@H]2CNC[C@H]([C@@H](O)COC)C2)nc2ccccc21 [Example 73-1, dihydrochloride] : its inhibition at 1 mg/kg reads 77

Noted for COCCCCn1c(C(=O)N(CC(C)C)[C@@H]2CNC[C@H](C(=O)OCc3oc(=O)oc3C)C2)nc2ccccc21 [Example 7, dihydrochloride] : its inhibition at 1 mg/kg reads 93

Noted for COCCCCn1c(C(=O)N(CC(C)C)[C@@H]2CNC[C@H]([C@H](O)COC)C2)nc2ccccc21 [Example 73-2, dihydrochloride] : its inhibition at 1 mg/kg reads 90

Noted for COCCCCn1c(C(=O)N(CC(C)C)[C@@H]2CNC[C@H](C(=O)N3CCOCC3)C2)nc2ccccc21 [Example 10, dihydrochloride] : its inhibition at 1 mg/kg reads 72

Noted for COCCCCn1c(C(=O)N(CC(C)C)[C@@H]2CNC[C@H](C(=O)N3CCCC3)C2)nc2cc(F)ccc21 [Example 18, dihydrochloride] : its inhibition at 1 mg/kg reads 89

Noted for COCCCCn1c(C(=O)N(CC(C)C)[C@@H]2CNC[C@H](C(O)COC)C2)nc2ccccc21 (stereo partly drawn) [Example 48, dihydrochloride] : its inhibition at 1 mg/kg reads 78
